tested on: S. pneumoniae ATCC49619; experiment: MIC, microdilution broth method (NCCLS); assay type: cell-based; conditions: Streptococcus pneumoniae, Table 2, 3,6-Dicarbamoyl Macrolide Derivatives, read-out: MIC Values, D: S. pneumoniae ATCC49619
measurement_label: MIC (µg/mL)

compound	experimental_system	MIC / µg/mL
CC[C@H]1OC(=O)[C@H](C)[C@@H](OC(=O)N2CCCC2)[C@H](C)[C@@H](O[C@@H]2O[C@H](C)C[C@H](N(C)C)[C@H]2O)[C@](C)(OC(=O)NC/C=C/c2ccc(-c3ncccn3)cc2)C[C@@H](C)C(=O)[C@H](C)[C@H]2NC(=O)O[C@@]21C [Compound 62]	S. pneumoniae ATCC49619	0.06
CC[C@H]1OC(=O)[C@H](C)[C@@H](OC(=O)N(CC)CC)[C@H](C)[C@@H](O[C@@H]2O[C@H](C)C[C@H](N(C)C)[C@H]2O)[C@](C)(OC(=O)NC/C=C/c2ccc(-c3ncccn3)cc2)C[C@@H](C)C(=O)[C@H](C)[C@H]2NC(=O)O[C@@]21C [Compound 56]	S. pneumoniae ATCC49619	0.06
CC[C@H]1OC(=O)[C@H](C)[C@@H](OC(=O)N(C)c2cccnc2)[C@H](C)[C@@H](O[C@@H]2O[C@H](C)C[C@H](N(C)C)[C@H]2O)[C@](C)(OC(=O)NC/C=C/c2ccc(-c3ncccn3)cc2)C[C@@H](C)C(=O)[C@H](C)[C@H]2NC(=O)O[C@@]21C [Compound 60]	S. pneumoniae ATCC49619	0.06
CC[C@H]1OC(=O)[C@H](C)[C@@H](OC(=O)N(CC)CC)[C@H](C)[C@@H](O[C@@H]2O[C@H](C)C[C@H](N(C)C)[C@H]2O)[C@](C)(OC(=O)NC/C=C/c2ccc(-n3cccn3)cc2)C[C@@H](C)C(=O)[C@H](C)[C@H]2NC(=O)O[C@@]21C [Compound 70]	S. pneumoniae ATCC49619	0.06
CC[C@H]1OC(=O)[C@H](C)[C@@H](OC(=O)N(C)Cc2cccnc2)[C@H](C)[C@@H](O[C@@H]2O[C@H](C)C[C@H](N(C)C)[C@H]2O)[C@](C)(OC(=O)NC/C=C/c2ccc(-c3ncccn3)cc2)C[C@@H](C)C(=O)[C@H](C)[C@H]2NC(=O)O[C@@]21C [Compound 58]	S. pneumoniae ATCC49619	0.03
CC[C@H]1OC(=O)[C@H](C)[C@@H](OC(=O)N(CC)c2cccnc2)[C@H](C)[C@@H](O[C@@H]2O[C@H](C)C[C@H](N(C)C)[C@H]2O)[C@](C)(OC(=O)NC/C=C/c2ccc(-c3ncccn3)cc2)C[C@@H](C)C(=O)[C@H](C)[C@H]2NC(=O)O[C@@]21C [Compound 65]	S. pneumoniae ATCC49619	0.25

====

test system: H. influenzae ATCC49247; experiment: MIC, microdilution broth method (NCCLS); format: cell-based; details: Haemophilus influenzae, Table 2, 3,6-Dicarbamoyl Macrolide Derivatives, read-out: MIC Values, E: H. influenzae ATCC49247
measurement_label: MIC (µg/mL)

compound	MIC [µg/mL]
CC[C@H]1OC(=O)[C@H](C)[C@@H](OC(=O)N(C)C)[C@H](C)[C@@H](O[C@@H]2O[C@H](C)C[C@H](N(C)C)[C@H]2O)[C@](C)(OC(=O)NC/C=C/c2ccc(-c3ncccn3)cc2)C[C@@H](C)C(=O)[C@H](C)[C@H]2NC(=O)O[C@@]21C	4
CC[C@H]1OC(=O)[C@H](C)[C@@H](OC(=O)N2CCCC2)[C@H](C)[C@@H](O[C@@H]2O[C@H](C)C[C@H](N(C)C)[C@H]2O)[C@](C)(OC(=O)NC/C=C/c2ccc(-c3ncccn3)cc2)C[C@@H](C)C(=O)[C@H](C)[C@H]2NC(=O)O[C@@]21C	4
